Biological target: KDD1 (Entamoeba histolytica, UniProt C4M2W0, D241A/K147A)
Sequence (C4M2W0 1-433 K147A/D241A): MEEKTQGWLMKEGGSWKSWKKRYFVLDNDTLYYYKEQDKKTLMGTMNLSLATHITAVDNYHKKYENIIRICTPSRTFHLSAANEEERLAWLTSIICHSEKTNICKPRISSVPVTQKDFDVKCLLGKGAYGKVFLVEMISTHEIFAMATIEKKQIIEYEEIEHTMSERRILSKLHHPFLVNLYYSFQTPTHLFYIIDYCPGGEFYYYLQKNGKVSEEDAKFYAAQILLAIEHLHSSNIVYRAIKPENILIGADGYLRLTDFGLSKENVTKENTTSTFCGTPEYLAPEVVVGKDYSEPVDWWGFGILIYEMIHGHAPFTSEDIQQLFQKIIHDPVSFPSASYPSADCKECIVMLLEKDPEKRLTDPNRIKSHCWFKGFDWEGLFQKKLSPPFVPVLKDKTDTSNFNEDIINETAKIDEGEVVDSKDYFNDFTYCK
Test: Microscale Thermophoresis (MST), kinase-dead EhAGCK1 (KDD1)
Type: binding
Conditions: KDD1 (K147A and D241A), Tris-Cl pH 8, 25°C, peptide 500 μM to 153 nM, n = 6
No end group written: not given here.
Parameter: pKd
Give bare numbers, as −log10 of the molar value.

# input Any idea what its pKd is? The sequence is SSPSSVPAAQSTTPVNVPK [RhoGEF]
# output 4.92
